Readings of pIC50 for the listed molecules
- test.system: JAK3 (JH1 and JH2 domain) (Homo sapiens, UniProt P52333)
- Sequence (P52333 521-1111 limits assumed): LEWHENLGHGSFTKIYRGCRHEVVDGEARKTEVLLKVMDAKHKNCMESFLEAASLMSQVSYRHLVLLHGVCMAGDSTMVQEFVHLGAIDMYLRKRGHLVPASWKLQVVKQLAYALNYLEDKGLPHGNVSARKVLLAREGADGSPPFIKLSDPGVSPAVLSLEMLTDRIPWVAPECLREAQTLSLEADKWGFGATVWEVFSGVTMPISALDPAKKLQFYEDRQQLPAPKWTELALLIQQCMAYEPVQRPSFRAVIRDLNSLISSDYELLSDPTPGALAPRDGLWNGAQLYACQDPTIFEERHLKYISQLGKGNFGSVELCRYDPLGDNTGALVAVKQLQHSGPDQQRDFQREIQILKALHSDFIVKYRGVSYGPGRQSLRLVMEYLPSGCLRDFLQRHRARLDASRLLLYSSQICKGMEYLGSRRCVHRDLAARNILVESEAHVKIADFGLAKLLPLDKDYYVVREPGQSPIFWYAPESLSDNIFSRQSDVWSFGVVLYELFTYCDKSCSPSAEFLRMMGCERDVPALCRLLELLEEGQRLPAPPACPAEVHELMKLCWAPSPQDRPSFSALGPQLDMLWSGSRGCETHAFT
- protocol.description: JAK3 Kinase Assay (ELISA of peptide substrate phosphorylation)
- Assay type: biochemical
- measurement.parameters: purified JAK3 enzyme, 10 μM ATP, biotinylated peptide substrate, 1 hour at room temperature
Hey, just a heads up that pIC50 is the negative log base 10 of the concentration in molar.

For orientation, consider the following solved cases.
- CN1CCN(CCCNC(=O)OC2Cn3c4ccccc4c4c5c(c6c7ccccc7n(c6c43)CC2O)C(=O)NC5=O)CC1 (centres unmarked): 6.84
- CN(C)[C@@H]1CCN(C(=O)OC2CCn3c4ccccc4c4c5c(c6c7ccccc7n(c6c43)C2)C(=O)NC5=O)C1 (some centres unmarked): 7.85
- CN(C)CC(=O)OC1Cn2c3ccccc3c3c4c(c5c6ccccc6n(c5c32)CC1OC(=O)CN(C)C)C(=O)NC4 (centres unmarked): 6.19
- COCCNCc1ccc2c(c1)c1c3c(c4c5ccccc5n5c4c1n2CC(O)C(O)C5)CNC3=O (centres unmarked): 6.45
- O=C1NC(=O)c2c1c1c3ccccc3n3c1c1c2c2ccccc2n1CC(O)(C(=O)NCCCN1CCOCC1)C(O)C3 (centres unmarked): 7.77

Enquiry: Give the measured pIC50 of O=C1NCc2c1c1c3ccccc3n3c1c1c2c2ccccc2n1CC(COC(=O)N1CCN(c2ccc(O)cc2)CC1)C3 (centres unmarked) .
Return: 6.91

Enquiry: // same read-out, input: COc1ccccc1CNC(=O)OCC1Cn2c3ccccc3c3c4c(c5c6ccccc6n(c5c32)C1)C(=O)NC4 (centres unmarked)
Return: 7.14

Enquiry: // same read-out, input: O=C(NCCCN1CCOCC1)OC1Cn2c3ccccc3c3c4c(c5c6ccccc6n(c5c32)CC1O)C(=O)NC4=O (centres unmarked)
Return: 6.95

Enquiry: // same read-out, input: CC(=O)c1ccc(N2CCN(C(=O)OC3CCn4c5ccccc5c5c6c(c7c8ccccc8n(c7c54)C3)C(=O)NC6=O)CC2)cc1 (centres unmarked)
Return: 6.26

Enquiry: // same read-out, input: O=C1NC(=O)c2c1c1c3ccccc3n3c1c1c2c2ccccc2n1CC(OC(=O)N1CCN(c2ccccc2)CC1)C(O)C3 (centres unmarked)
Return: 7.09

Enquiry: // same read-out, input: CN1CCN(CC(=O)Nc2ccc3c(c2)c2c4c(c5c6ccccc6n6c5c2n3CC(O)C(O)C6)CNC4=O)CC1 (centres unmarked)
Return: 7.38

Enquiry: // same read-out, input: O=C1NCc2c1c1c3cc(/C=C/Cn4ccnc4)ccc3n3c1c1c2c2cc(CO)ccc2n1CC(CO)C3 (centres unmarked)
Return: 8.52

Enquiry: // same read-out, input: CN(C)CCCNC(=O)OC1CCn2c3ccccc3c3c4c(c5c6ccccc6n(c5c32)CC1)C(=O)NC4 (centres unmarked)
Return: 6.75

Enquiry: // same read-out, input: CN(C)[C@H]1CCN(C(=O)OC2CCn3c4ccccc4c4c5c(c6c7ccccc7n(c6c43)C2)C(=O)NC5=O)C1 (some centres unmarked)
Return: 7.38

Enquiry: // same read-out, input: O=C1NCc2c1c1c3ccccc3n3c1c1c2c2ccccc2n1CC(O)(COC(=O)N1CCN(c2ccncc2)CC1)C3 (centres unmarked)
Return: 6.05

Enquiry: // same read-out, input: O=C1NCc2c1c1c3ccccc3n3c1c1c2c2ccccc2n1CC(COC(=O)N1CCN(C(=O)OCc2ccccc2)CC1)C3 (centres unmarked)
Return: 6.69

Enquiry: // same read-out, input: O=C1NC(=O)c2c1c1c3cc(-c4cccnc4)ccc3n3c1c1c2c2ccccc2n1CC(O)CC3 (centres unmarked)
Return: 7.46

Enquiry: // same read-out, input: O=C1NCc2c1c1c3cc(/C=C/Cn4ccnc4)ccc3n3c1c1c2c2ccccc2n1CC(CO)C3 (centres unmarked)
Return: 7.85

Enquiry: // same read-out, input: O=C1NC(=O)c2c1c1c3ccccc3n3c1c1c2c2ccccc2n1CC(OC(=O)N1CCCNCC1)C(O)C3 (centres unmarked)
Return: 6.34

Enquiry: // same read-out, input: O=C1NC(=O)c2c1c1c3ccccc3n3c1c1c2c2ccccc2n1CC(O)(C(=O)N1CCN(c2ccccn2)CC1)C(O)C3 (centres unmarked)
Return: 7.11

Enquiry: // same read-out, input: O=C1NC(=O)c2c1c1c3ccccc3n3c1c1c2c2ccccc2n1CC(OC(=O)N1CCN(Cc2ccccc2)CC1)CC3 (centres unmarked)
Return: 6.91

Enquiry: // same read-out, input: O=C1NCc2c1c1c3cc(/C=N/NC4=NCCN4)ccc3n3c1c1c2c2ccccc2n1CC(O)C(O)C3 (centres unmarked)
Return: 7.72

Enquiry: // same read-out, input: CN(C)C1CCN(C(=O)OC2Cn3c4ccccc4c4c5c(c6c7ccccc7n(c6c43)CC2O)C(=O)NC5=O)C1 (centres unmarked)
Return: 6.76

Enquiry: // same read-out, input: CN(C)CCCN1CCN(C(=O)OC2Cn3c4ccccc4c4c5c(c6c7ccccc7n(c6c43)CC2O)C(=O)NC5=O)CC1 (centres unmarked)
Return: 6.76

Enquiry: // same read-out, input: O=C1NCc2c1c1c3cc(Br)ccc3n3c1c1c2c2ccccc2n1CC(O)C(O)C3 (centres unmarked)
Return: 7.47

Enquiry: // same read-out, input: COCCNC(=O)OCC1Cn2c3ccccc3c3c4c(c5c6ccccc6n(c5c32)C1)C(=O)NC4 (centres unmarked)
Return: 7.08

Enquiry: // same read-out, input: O=C1NCc2c1c1c3ccccc3n3c1c1c2c2ccccc2n1CC(O)(CO)C3 (centres unmarked)
Return: 7.54

Enquiry: // same read-out, input: O=C1NC(=O)c2c1c1c3ccccc3n3c1c1c2c2ccccc2n1CC(OC(=O)N1CCN(CCN2CCCC2=O)CC1)CC3 (centres unmarked)
Return: 7.39

Hey, just so you know, these numbers are from patent US20070249590A1.
